Below, each of the binders is paired with its reported cAMP Rel EC50, nM (1% HSA) value.
# tgt: hGLP-1R (Homo sapiens, UniProt P43220)
# Sequence (P43220 24-463): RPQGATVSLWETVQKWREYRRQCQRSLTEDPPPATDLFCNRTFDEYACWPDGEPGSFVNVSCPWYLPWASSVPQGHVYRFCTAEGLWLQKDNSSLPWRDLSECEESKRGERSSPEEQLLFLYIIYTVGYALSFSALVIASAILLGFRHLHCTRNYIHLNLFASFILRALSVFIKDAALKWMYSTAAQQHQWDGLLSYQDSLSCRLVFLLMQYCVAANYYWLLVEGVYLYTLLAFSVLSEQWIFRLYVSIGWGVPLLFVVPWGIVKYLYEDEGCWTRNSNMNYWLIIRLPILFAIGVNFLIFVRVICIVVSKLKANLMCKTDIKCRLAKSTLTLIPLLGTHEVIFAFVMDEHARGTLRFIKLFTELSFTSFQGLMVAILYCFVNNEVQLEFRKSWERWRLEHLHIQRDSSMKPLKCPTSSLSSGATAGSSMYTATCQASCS
# protocolDescription: cell-based or functional assay

# binder, cAMP Rel EC50, nM (1% HSA) [nM]
measured = [
    ("YXQGTFTSDFSXXLDKKAQXAFIEYLLEGGPSSGAPPPGGS (not fully specified; free C-terminus (not amidated); synthetic construct; SITE 2: note = 2-Aminoisobutyric Acid; SITE 12: note = L-ornithine; SITE 13: note = alpha-methyl-leucine; SITE 17: note = Lysine is chemically modified through conjugation of the epsilon-amino group of the Lysine side chain with (2-[2-(2-Amino-ethoxy)-ethoxy]-acetyl)-(gamma-Glu)) [Example 196]", 458),
    ("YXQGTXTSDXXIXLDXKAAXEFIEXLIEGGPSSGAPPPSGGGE (synthetic construct; SITE 2: note = 2-Aminoisobutyric Acid; SITE 6: note = alpha-methyl-2-fluoro-L-phenylalanine; SITE 10: note = 3-(4-Pyridyl)-L-alanine; SITE 11: note = alpha-methyl-L-serine; SITE 13: note = alpha-methyl-leucine; SITE 16: note = L-ornithine; SITE 17: note = Lysine is chemically mo) [Example 747]", 20.3),
    ("YXQGTFTSDXSQXLDXKAQXAFIEYLIEAGPSSGAPPPSGSE (not fully specified; acylated lysine (γGlu)2-C18 diacid; non-natural residues; C-terminal amide; synthetic construct; SITE 2: note = 2-Aminoisobutyric Acid; SITE 10: note = 3-(4-Pyridyl)-L-alanine; SITE 13: note = alpha-methyl-leucine; SITE 16: note = L-ornithine; SITE 17: note = Lysine is chemically modified through conjugation of the epsilon-amino group of the Lysine side chain with (gamma-Gl)) [Example 1023]", 230),
    ("YXQGTFTSDFSXXLDKKAQXAFIEYLLEGGPSSGAXPPGGS (acylated; synthetic construct; SITE 2: note = 2-Aminoisobutyric Acid; SITE 12: note = L-ornithine; SITE 13: note = alpha-methyl-leucine; SITE 17: note = Lysine is chemically modified through conjugation of the epsilon-amino group of the Lysine side chain with (2-[2-(2-Amino-ethoxy)-ethoxy]-acetyl)-(gamma-Glu)) [Example 235]", 457),
    ("YXQGTFTSDFSKXLDKKAQXAFIEYLIEXGESSGAPPPSGE (acylated; synthetic construct; SITE 2: note = 2-Aminoisobutyric Acid; SITE 13: note = alpha-methyl-leucine; SITE 17: note = Lysine is chemically modified through conjugation of the epsilon-amino group of the Lysine side chain with (2-[2-(2-Amino-ethoxy)-ethoxy]-acetyl)-(gamma-Glu)-CO-(CH2) 16-CO2H; SITE 20: n) [Example 217]", 130),
    ("YXQGTFTSDXSXXLDXKAQXQFIEXLLAGGPSSGAPPPSGSEE (non-natural residues, (γGlu)2-diacid acylated Lys, C-terminal amide; synthetic construct; SITE 2: note = 2-Aminoisobutyric Acid; SITE 10: note = 3-(4-Pyridyl)-L-alanine; SITE 12: note = L-ornithine; SITE 13: note = alpha-methyl-leucine; SITE 16: note = L-ornithine; SITE 17: note = Lysine is chemically modified through conjugation of the epsilon-amino group of the Lys) [Example 995]", 1660),
    ("YXQGTFTSDFSXXLDKKAQXAFIEYLLEGGHSSGAPPPGGS (synthetic construct; SITE 2: note = 2-Aminoisobutyric Acid; SITE 12: note = L-ornithine; SITE 13: note = alpha-methyl-leucine; SITE 17: note = Lysine is chemically modified through conjugation of the epsilon-amino group of the Lysine side chain with (2-[2-(2-Amino-ethoxy)-ethoxy]-acetyl)-(gamma-Glu)) [Example 162]", 786),
    ("YXQGTFTSDFSQXLDKKAQXAFIEYLLEXGPSSGAPPPSGX (synthetic construct; SITE 2: note = 2-Aminoisobutyric Acid; SITE 13: note = alpha-methyl-leucine; SITE 17: note = Lysine is chemically modified through conjugation of the epsilon-amino group of the Lysine side chain with (2-[2-(2-Amino-ethoxy)-ethoxy]-acetyl)-(gamma-Glu)-CO-(CH2) 16-CO2H; SITE 20: n) [Example 782]", 354),
    ("YXQGTFTSDXSXXLDKKAQXAFIEXLIEGGPSSGAPPPSGSEE (Aib, 4Pal, Orn, Me4Pal, αMeY; acylated lysine; amide; synthetic construct; SITE 2: note = 2-Aminoisobutyric Acid; SITE 10: note = 3-(4-Pyridyl)-L-alanine; SITE 12: note = L-ornithine; SITE 13: note = alpha-methyl-leucine; SITE 17: note = Lysine is chemically modified through conjugation of the epsilon-amino group of the Lysine side chain with (gamma-Gl)) [Example 967]", 345),
    ("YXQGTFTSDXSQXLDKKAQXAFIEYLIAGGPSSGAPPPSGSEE (Aib, 4Pal, Me4Pal, αMeL; lipidated Lys; C-terminal amide; synthetic construct; SITE 2: note = 2-Aminoisobutyric Acid; SITE 10: note = 3-(4-Pyridyl)-L-alanine; SITE 13: note = alpha-methyl-leucine; SITE 17: note = Lysine is chemically modified through conjugation of the epsilon-amino group of the Lysine side chain with (gamma-Glu)2-CO-(CH2)16-CO2H; SITE 20:) [Example 960]", 161),
    ("YXQGTXTSDYSSLLDKKAQXAFIEYLEEGGPSSGAPPPS (synthetic construct; SITE 2: note = 2-Aminoisobutyric Acid; SITE 6: note = alpha-methyl-2-fluoro-L-phenylalanine; SITE 17: note = Lysine is chemically modified through conjugation of the epsilon-amino group of the Lysine side chain with (2-[2-(2-Amino-ethoxy)-ethoxy]-acetyl)-(gamma-Glu)-CO-(CH2) 16-) [Example 409]", 41.7),
    ("YXQGTFTSDFSXXLDKKAQXAFIEYLLEGGESSGAPPPGGS (synthetic construct; SITE 2: note = 2-Aminoisobutyric Acid; SITE 12: note = L-ornithine; SITE 13: note = alpha-methyl-leucine; SITE 17: note = Lysine is chemically modified through conjugation of the epsilon-amino group of the Lysine side chain with (2-[2-(2-Amino-ethoxy)-ethoxy]-acetyl)-(gamma-Glu)) [Example 161]", 963),
    ("YXQGTXTSDYSILLDKKAQXAFIEYLEEGGPSSGAPPPSE (synthetic construct; SITE 2: note = 2-Aminoisobutyric Acid; SITE 6: note = alpha-methyl-2-fluoro-L-phenylalanine; SITE 17: note = Lysine is chemically modified through conjugation of the epsilon-amino group of the Lysine side chain with (gamma-Glu)2-CO-(CH2)16-CO2H; SITE 20: note = 2-Aminoisobutyric) [Example 433]", 43.4),
    ("YXQGTFTSDFSQXLDXKAQXAFIEXLLEAGPSSGAPPPSGSEEE (Aib, αMeL, Orn, Me4Pal; acylated K; C-terminal amide; synthetic construct; SITE 2: note = 2-Aminoisobutyric Acid; SITE 13: note = alpha-methyl-leucine; SITE 16: note = L-ornithine; SITE 17: note = Lysine is chemically modified through conjugation of the epsilon-amino group of the Lysine side chain with (gamma-Glu)2-CO-(CH2)16-CO2H; SITE 20: note = 2-Am) [Example 1040]", 322),
    ("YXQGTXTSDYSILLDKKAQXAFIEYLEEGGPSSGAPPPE (synthetic construct; SITE 2: note = 2-Aminoisobutyric Acid; SITE 6: note = alpha-methyl-2-fluoro-L-phenylalanine; SITE 17: note = Lysine is chemically modified through conjugation of the epsilon-amino group of the Lysine side chain with (2-[2-(2-Amino-ethoxy)-ethoxy]-acetyl)-(gamma-Glu)-CO-(CH2) 16-) [Example 408]", 37.9),
    ("YXQGTFTSDXSXXLDKKAQXAFIEXLIEGGPSSGAPPPSGS (acylated Lys, C-terminal amide, non-natural residues; synthetic construct; SITE 2: note = 2-Aminoisobutyric Acid; SITE 10: note = 3-(4-Pyridyl)-L-alanine; SITE 12: note = L-ornithine; SITE 13: note = alpha-methyl-leucine; SITE 17: note = Lysine is chemically modified through conjugation of the epsilon-amino group of the Lysine side chain with (gamma-Gl)) [Example 952]", 439),
    ("YXQGTFTSDXSQXLDXKAQXAFIEYLIEAGPSSGAPPPSGS (not fully specified; Aib, 4Pal, αMeL, Orn, Me4Pal, D-Ala; acylated Lys; C-terminal amide; synthetic construct; SITE 2: note = 2-Aminoisobutyric Acid; SITE 10: note = 3-(4-Pyridyl)-L-alanine; SITE 13: note = alpha-methyl-leucine; SITE 16: note = L-ornithine; SITE 17: note = Lysine is chemically modified through conjugation of the epsilon-amino group of the Lysine side chain with (2-[2-(2-) [Example 1016]", 156),
    ("YXQGTFTSDXSXXLDXKAQXXFIEXLLAGGPSSGAPPPSGSEE (non-natural residues; lipidated Lys (γGlu)2-C18 diacid; C-term amide; synthetic construct; SITE 2: note = 2-Aminoisobutyric Acid; SITE 10: note = 3-(4-Pyridyl)-L-alanine; SITE 12: note = L-ornithine; SITE 13: note = alpha-methyl-leucine; SITE 16: note = L-ornithine; SITE 17: note = Lysine is chemically modified through conjugation of the epsilon-amino group of the Lys) [Example 997]", 1880),
    ("YXQGTXTSDYXIXLDXKAQXAFIEYLLEGGPSSGEPPPE (synthetic construct; SITE 2: note = 2-Aminoisobutyric Acid; SITE 6: note = alpha-methyl-L-phenylalanine; SITE 11: note = alpha-methyl-L-serine; SITE 13: note = alpha-methyl-leucine; SITE 16: note = L-ornithine; SITE 17: note = Lysine is chemically modified through conjugation of the epsilon-amino gr) [Example 420]", 31.3),
    ("YXQGTFTSDFSXXLDKKAQXAFIEWLLEGGHSSGAPPPSGE (synthetic construct; SITE 2: note = 2-Aminoisobutyric Acid; SITE 12: note = L-ornithine; SITE 13: note = alpha-methyl-leucine; SITE 17: note = Lysine is chemically modified through conjugation of the epsilon-amino group of the Lysine side chain with (2-[2-(2-Amino-ethoxy)-ethoxy]-acetyl)2-(gamma-Glu)) [Example 169]", 216),
    ("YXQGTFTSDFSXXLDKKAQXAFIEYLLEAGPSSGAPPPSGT (not fully specified; acylated; synthetic construct; SITE 2: note = 2-Aminoisobutyric Acid; SITE 12: note = L-ornithine; SITE 13: note = alpha-methyl-leucine; SITE 17: note = Lysine is chemically modified through conjugation of the epsilon-amino group of the Lysine side chain with (gamma-Glu)3-CO-(CH2)16-CO2H; SITE 20: note = 2-Am) [Example 205]", 234),
    ("YXQGTFTSDFSRXLDKKAQXAFIEYLIEXGESSGAPPPSGE (acylated lipid side chain; synthetic construct; SITE 2: note = 2-Aminoisobutyric Acid; SITE 13: note = alpha-methyl-leucine; SITE 17: note = Lysine is chemically modified through conjugation of the epsilon-amino group of the Lysine side chain with (2-[2-(2-Amino-ethoxy)-ethoxy]-acetyl)-(gamma-Glu)-CO-(CH2) 16-CO2H; SITE 20: n) [Example 231]", 223),
    ("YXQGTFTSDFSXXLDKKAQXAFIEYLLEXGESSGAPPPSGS (synthetic construct; SITE 2: note = 2-Aminoisobutyric Acid; SITE 12: note = L-ornithine; SITE 13: note = alpha-methyl-leucine; SITE 17: note = Lysine is chemically modified through conjugation of the epsilon-amino group of the Lysine side chain with (2-[2-(2-Amino-ethoxy)-ethoxy]-acetyl)2-(gamma-Glu)) [Example 179]", 904),
    ("YXQGTFTSDXSRXLDKKAQXAFIEYLIAGGESSGAPPPSGSEE (C-terminal amide; lysine acylated with (γ-Glu)2-C18 diacid; synthetic construct; SITE 2: note = 2-Aminoisobutyric Acid; SITE 10: note = 3-(4-Pyridyl)-L-alanine; SITE 13: note = alpha-methyl-leucine; SITE 17: note = Lysine is chemically modified through conjugation of the epsilon-amino group of the Lysine side chain with (gamma-Glu)2-CO-(CH2)16-CO2H; SITE 20:) [Example 965]", 194),
]

Data provenance: patent US20240270821A1
